System: K4 kissing-loop RNA reporter;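 also: bound reporter read as fluorescence of individual clusters on recovered sequencing chips by microscopy, with normalized cluster intensities fitted with a binding model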
Assay: apparent KD of K4 kissing-loop reporter; higher = weaker reporter binding
Conditions: Eterna round: R107; input ligand: arginine 13.2 mM
// False strictly below 300 nM in apparent KD of K4 kissing-loop reporter; True otherwise

Input line: Threshold query (apparent KD of K4 kissing-loop reporter >= 300 nM) on CAUACGCAUGGAGGAUAUGAGAAUUCUCAUGUCAUUUAAUAUUCUCAGUGAUGUUGAGGAUGUGGCUCAGAAGGCCAUGUGUAUG [Ex FMN B 21]
Output line: True

Input line: Threshold query (apparent KD of K4 kissing-loop reporter >= 300 nM) on CGACUAGUCUUGCAACCCUAGUCGAUAUGCUAGGAUAUCAGGAAACUGAGAAGGAGUUUACUUGCAGUGAUGUUGCAAGAAUAAU [KL-SSFMN-A10]
Output line: False

Input line: Threshold query (apparent KD of K4 kissing-loop reporter >= 300 nM) on GGGCAUCAGGCUGAUACCAGUGAUAAAGGAUAAGAGACAGGGAGUGAUGUUCCCUUUACCCACCCUUGGCAGCAGUUUAAGUUUG [Exclusion Theophylline B GF 16]
Output line: False

Input line: Threshold query (apparent KD of K4 kissing-loop reporter >= 300 nM) on AGAAACUUGUAUACAGGGCAUGCCAGAGAUACCAGUCAAAUGGAAGGCCCUUGGCAGCUCAGGCGAGUGAUGUUCGCAGGCUGAC [Exclusion Theophylline A GF 20]
Output line: False

Input line: Threshold query (apparent KD of K4 kissing-loop reporter >= 300 nM) on AGAACUGUCUGAGAUACCAGCCAUAGGAGUGAUGUUCCUAGCUCCACAAAGUGGAGCCAUAGCCCUUGGCAGCUCAGACAGUUCA [Omei KL Theo B SS A v7]
Output line: True

Input line: Threshold query (apparent KD of K4 kissing-loop reporter >= 300 nM) on GGCAUGGUGACGCGGCUGCCAUACGCUUGGGAGGAUAUGUUUCGUGACAGAAGGCCCAGUGAUGUUGGGUCUGUUCAAAAGGACU [Arisus]
Output line: False

Input line: Threshold query (apparent KD of K4 kissing-loop reporter >= 300 nM) on GCCGUAGAUUGAAGGAGCGCCGCGCAUGUCCCGCUUAGUGUAGUGAUGUUACAGUUUCAGCGGCAGGUAGGUCGCAAUCUACGGC
Output line: False

Input line: Threshold query (apparent KD of K4 kissing-loop reporter >= 300 nM) on AUUUAAUGUAUAGAUUAUAUACAUUAUUCAGAGGAUAUGCAUUGAAGCAGAAGGCUGGGUGUAGUGAUGUUGCAGUUUUAAUUUA [whbob_SS_FMNA__2th173]
Output line: False

Input line: Threshold query (apparent KD of K4 kissing-loop reporter >= 300 nM) on UGUAUGUGAUUUGAUACCAGACCAGCUGGUGGUACCUGAGUGAUGUUCGGGAUGGUCUGGGUCCCUUGGCAGCAAAUCGCAUACU [KL-SSTheoB21]
Output line: False

Input line: Threshold query (apparent KD of K4 kissing-loop reporter >= 300 nM) on GUAUCGCUAGGAGGAUAUUCCAUUUUACAUAGAAAUGGCUAUGCGAAGUGAUGUUUCGAUUUACGGGAAGAAGGCCUAGUGAUAC [FMN B 22]
Output line: False

---

Test system: MS2 coat protein
Test: apparent KD of MS2 coat protein; designed switch direction (-1 OFF switch, 1 ON switch): -1; higher = weaker reporter binding
Settings: input ligand: FMN 200 uM
For each record, write down the corresponding apparent KD of MS2 coat protein.
Just so you know, I need the unit written after the number.

Solved cases (3 shown):
GCAAGCUUUUGCUCGUCUUACAUGAGGAUCACCCAUGUUGGGUCCGGUCGCCGCGGCCGGGCCGGCCGGGCGCCGGG [-38, -65.5 kcal, A 10%] (Eterna round: R97, puzzle: Sensor, turn-off variant 1) = 31.2 nM
CUGAAAUUCGUAAGGAUAUGUUCCAUCAAAUAGGAGCAGAAGGUACAUGAGGAUCACCCAUGUCAGUAGAUCCA [Eternabot (L1) Solution 47] (Eterna round: R97, puzzle: Brourd's mod of Exclusion 4) = 130 nM
GCGCCUUGAGUGAGGAUAUGUUCAUAGUCGCUUGGAUAGAAGGCACAUGAGGAUCACCCAUGUAUCGGAGUUAA [Eternabot (L2) Solution 39] (Eterna round: R97, puzzle: Brourd's mod of Exclusion 4) = 48.2 nM

Let us move to another entry and its apparent KD of MS2 coat protein.
Input line: Look at this sequence and give its reported apparent KD of MS2 coat protein. CUGAAUCGAGGAUAUACAUGAGGAUCACCCAUGUAUACUGUCUUGGUGAGAGUCCCGUGUAGAAGGCGACAGGC [EX3 B.6] (Eterna round: R97, puzzle: Exclusion 3)
Output line: 60.1 nM

---

Test system: MS2 coat protein
Assay: apparent KD of MS2 coat protein; designed switch direction (-1 OFF switch, 1 ON switch): 1; higher = weaker reporter binding
Conditions: Eterna round: R95; input ligand: none
For each record, write down the corresponding apparent KD of MS2 coat protein.
Give bare numbers, in nM.

AUAAAACAUGAGGAUCACCCAUGUCAACAAAGUCGAGGAUAUGGGCAAAUAAUAUAAGAACCAGAAGGCGAAUAAU [salish99_ss1_r3_022] (puzzle: Same State 1) = 191

Record apparent KD of MS2 coat protein per entry; entries follow.
1. AUCCUACAUGAGGAUCACCCAUGUGACGCCUCGAUAGGAUAUGCGUGUGCCUUGGCGCAUGCAGAAGGAUUGGAGC [JL Aveso mod 5] (puzzle: Same State 1)
2. GUAAAACAUGAGGAUCACCCAUGUAAUAUAAUGGGAGGAUAUCUGAUUUAAUUUAAUUUAAGAGAAGGCCUAAAUG [Mat - Same State 1 - Mod of Eli - D57] (puzzle: Same State 1)
3. AGUCCAGAAUAAACUGGACAAAGACAUGUACAUGAGGAUCACCCAUGUCAUGUACAAGUUUUUUGCUCGUCUUAUAA (puzzle: Sensor for hsa-mir-208a)
4. UGGUAACAUGAGGAUCACCCAUGUCAAAUGAAUCGAGGAUAUGGGAAAGGAGAAGAGAAACCAGAAGGCGAAGUUG [Altered State 1-13 - Jieux - Same State 1] (puzzle: Same State 1)
5. GAUAGACAUGAGGAUCACCCAUGUGACAAAACCACAGGAUAUCAUGCAGGCGUAACUGCAUGAGAAGGGUGAGACU [Quanve] (puzzle: Same State 1)
6. AACAAUCUAUCUGAGGAUAUCAUGAAAUAAACAUGAGGAUCACCCAUGUGCAGGAAAACUGUAUAUGAGAAGGCAGAUAGAUUGA [salish99_ss2_r3_046] (puzzle: Same State 2)
7. ACAAGCUUUUCUGCAUUGAAAGGUGGGAUACAUGAGGAUCACCCAUGUUUUUAUGAAAAUAAUGCUCCUCGUCUUAU [JR_SHM208A_Sub092] (puzzle: Sensor for hsa-mir-208a)

Output line:
78.5
372
37.2
51.9
35.8
101
243

Input line: Look at this sequence and give its reported apparent KD of MS2 coat protein. GACAAUCUAUCUGAGGAUAUCAUGAUAAUAACAUGAGGAUCACCCAUGUGCAGGAAAACUGCAUAUGAGAAGGCAGAUAGAUUGA [Mat - Same State 2 - Mod - D14] (puzzle: Same State 2)
Output line: 294

---

For each record, write down the corresponding apparent KD of MS2 coat protein.
Tested on: MS2 coat protein
Experiment: apparent KD of MS2 coat protein; designed switch direction (-1 OFF switch, 1 ON switch): -1; higher = weaker reporter binding
Conditions: input ligand: FMN 200 uM
One number for each entry, in nM.

UGUUGUUCAGGAUAUGAUGUAUUAUACAUGAGGAUCACCCAUGUGGGUCCUGAUUUGGCGUCAGAAGGGAAUGUUG [salish99_ex5_r4_110] (Eterna round: R97, puzzle: Exclusion 5) = 205

Record apparent KD of MS2 coat protein per entry; entries follow.
1. AACAGUCUAGAGGAUAUGCUGGAUUAAUAUCUGGCAGAAGGCUGGACAUGAGGAUCACCCAUGUAAAUACUACC [Omei Ex6 A1] (Eterna round: R97, puzzle: Exclusion 6)
2. UUUCCGGCGCGGGUUUUUUACAUGAGGAUCACCCAUGUCCUCUGCUUGUCUUGUCUUGGGCUUUUUUUGGGUUCGGG [-19, -39.7 kcal, A 8%] (Eterna round: R97, puzzle: Sensor, turn-off variant 1)
3. GGGCUGGGAGGAUAUUCGUUUGGAGACAUGAGGAUCACCCAUGUGAUGCGAGGGAAGUCCGGAGAAGGCUCGGUUC [-24.8, -21.2 kcal, 22% A] (Eterna round: R97, puzzle: Exclusion 5)
4. AGGUGUAGAGGAUAUUUAUACUCCCACAUGAGGAUCACCCAUGUCCUGGUCACCAAGGACGGAGAAGGCUACACCA [Omei Ex5 D23] (Eterna round: R97, puzzle: Exclusion 5)
5. UGUUGUUCAGGAUAUGAUGUAUAAUACAUGAGGAUCACCCAUGUAGAUCCUGAAUUAGCGUCAGAAGGGAAUGUUG [salish99_ex5_r4_104] (Eterna round: R97, puzzle: Exclusion 5)
6. AGAUUAAAAGUAAGGAUAUGAUGCAGGAAACUGCGUCAGAAGGUACAUGAGGAUCACCCAUGUUAAACUAAUUU [Explosion 6 - Jieux - Brourd's mod of Exclusion 4] (Eterna round: R97, puzzle: Brourd's mod of Exclusion 4)

Output line:
137
697
24
48.5
18
19.4
